Tested on: NCI-H929 complex spheroids, viability % test/control
PROTOCOL NOTES: Anticancer human tumor NCI-H929 cell line growth inhibition [RAS]; active means viability on the fitted dose curve at most 10% of control; inactive means the rest;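 further: compound exposure lasted seven days before viability was read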
COND: second compound 0.1 µM; first compound 10 µM
Lab note: assign the record to one of Yes for active, No for inactive

Query :: Answer briefly: the call reported for CCC(CC)c1cc(NC2CCC(N)C2)n2nccc2n1 (stereo not given) + C#Cc1c(F)ccc2cc(O)cc(-c3ncc4c(N5CC6CCC(C5)N6)nc(OCC56CCCN5CC(F)C6)nc4c3F)c12 in this assay.
Result :: Yes

Query :: Try the compound CC(=O)OC12COC1CC(O)C1(C)C(=O)C(O)C3=C(C)C(OC(=O)C(O)C(NC(=O)OC(C)(C)C)c4ccccc4)CC(O)(C(OC(=O)c4ccccc4)C21)C3(C)C (stereo not given) + C=CC(=O)N1CCN(c2nc(OCC3CCCN3C)nc3c(F)c(-c4nc(N)cc(C)c4C(F)(F)F)c(Cl)cc23)C(C)C1
Result :: Yes

Query :: Try the compound CC1(O)CCCC1n1c(=O)c(C(F)F)cc2cnc(NC3CCN(S(C)(=O)=O)CC3)nc21 (stereo not given) + C#Cc1c(F)ccc2cc(O)cc(-c3ncc4c(N5CC6CCC(C5)N6)nc(OCC56CCCN5CC(F)C6)nc4c3F)c12
Result :: Yes

Query :: Try the compound NC1c2ccccc2OC12CCN(c1cnc3c(N4CCCc5ncccc54)n[nH]c3n1)CC2 (stereo not given) + C=CC(=O)N1CCN(c2nc(OCC3CCCN3C)nc3c(F)c(-c4nc(N)cc(C)c4C(F)(F)F)c(Cl)cc23)C(C)C1
Result :: No

Query :: Try the compound Cc1nc(N2CCC3(CC2)COC(C)C3N)c(CO)nc1Sc1ccnc(N)c1Cl (stereo not given) + C=CC(=O)N1CCN(c2nc(OCC3CCCN3C)nc3c(F)c(-c4nc(N)cc(C)c4C(F)(F)F)c(Cl)cc23)C(C)C1
Result :: No

Query :: Try the compound CC(Nc1ccc2c(c1)OCCn1cc(N3C(=O)OCC3C(F)F)nc1-2)C(N)=O (stereo not given) + C#Cc1c(F)ccc2cc(O)cc(-c3ncc4c(N5CC6CCC(C5)N6)nc(OCC56CCCN5CC(F)C6)nc4c3F)c12
Result :: No

Query :: Try the compound C[C@@H](NC(=O)c1ncnc(N)c1Cl)c1ncc(C(=O)Nc2cc(C(F)(F)F)c(Cl)cn2)s1 + C=CC(=O)N1CCN(c2nc(OCC3CCCN3C)nc3c(F)c(-c4nc(N)cc(C)c4C(F)(F)F)c(Cl)cc23)C(C)C1
Result :: No

Query :: Try the compound CC(C)NCC(C(=O)N1CCN(c2ncnc3c2C(C)CC3O)CC1)c1ccc(Cl)cc1 (stereo not given) + C=CC(=O)N1CCN(c2nc(OCC3CCCN3C)nc3c(F)c(-c4nc(N)cc(C)c4C(F)(F)F)c(Cl)cc23)C(C)C1
Result :: No

Query :: Try the compound CC(Nc1ccc2c(c1)OCCn1cc(N3C(=O)OCC3C(F)F)nc1-2)C(N)=O (stereo not given) + C=CC(=O)N1CCN(c2nc(OCC3CCCN3C)nc3c(F)c(-c4nc(N)cc(C)c4C(F)(F)F)c(Cl)cc23)C(C)C1
Result :: No

Query :: Try the compound C[C@@H](NC(=O)c1ncnc(N)c1Cl)c1ncc(C(=O)Nc2cc(C(F)(F)F)c(Cl)cn2)s1 + C#Cc1c(F)ccc2cc(O)cc(-c3ncc4c(N5CC6CCC(C5)N6)nc(OCC56CCCN5CC(F)C6)nc4c3F)c12
Result :: No
